Task for the reader: assign each of the following compounds its reported pIC50.
Keep in mind that pIC50 stands for -log10 of concentration in molar terms.

(Q) # value lookup — system Cytochrome P450 2D6 (Homo sapiens, UniProt P10635), readout pIC50, item CCOc1cc(C[C@H]2COC(O)[C@@H]2Cc2cc(OC)c(OC)c(OC)c2)cc2c1OCO2 (some centres undefined)
(A) 4.06

(Q) # value lookup — system Cytochrome P450 2D6 (Homo sapiens, UniProt P10635), readout pIC50, item COc1cc(C[C@H]2C(=O)OC[C@@H]2Cc2ccc3c(c2)OCO3)cc(OC)c1OC
(A) 4.02

(Q) # value lookup — system Cytochrome P450 2D6 (Homo sapiens, UniProt P10635), readout pIC50, item O=C1OC[C@H](Cc2ccc3c(c2)OCO3)[C@H]1Cc1ccc2c(c1)OCO2
(A) 4.58

(Q) # value lookup — system Cytochrome P450 2D6 (Homo sapiens, UniProt P10635), readout pIC50, item OC[C@H](Cc1ccc2c(c1)OCO2)[C@H](CO)Cc1ccc2c(c1)OCO2 [DIHYDROCUBEBIN]
(A) 4.76

* * *

Form: system (Cytochrome P450 3A4 (Homo sapiens, UniProt P08684)), quantity (IC50), values below.
Unit µM implied. Number only.

(Q) # value lookup — system Cytochrome P450 3A4 (Homo sapiens, UniProt P08684), readout IC50, item COc1cc(OC)c([C@@H]2[C@H](C)[C@@H](C)[C@H]2c2cc(OC)c(OC)cc2OC)cc1OC
(A) 85.4

(Q) # value lookup — system Cytochrome P450 3A4 (Homo sapiens, UniProt P08684), readout IC50, item OC[C@H](Cc1ccc2c(c1)OCO2)[C@H](CO)Cc1ccc2c(c1)OCO2 [DIHYDROCUBEBIN]
(A) 9.5

(Q) # value lookup — system Cytochrome P450 3A4 (Homo sapiens, UniProt P08684), readout IC50, item COc1cc(C[C@H]2C(=O)OC[C@@H]2Cc2ccc3c(c2)OCO3)cc(OC)c1OC
(A) 1

(Q) # value lookup — system Cytochrome P450 3A4 (Homo sapiens, UniProt P08684), readout IC50, item COc1cc([C@H]2OC[C@@H]3C(c4cc(OC)c(O)c(OC)c4)OC[C@H]23)ccc1O (some centres undefined)
(A) 13.7

* * *

Task for the reader: assign each of the following molecules its reported pIC50.
Keep in mind that pIC50 stands for -log10 of concentration in molar terms.

(Q) # value lookup — system Cytochrome P450 3A4 (Homo sapiens, UniProt P08684), readout pIC50, item C/C=C/c1cc(OC)c(OC)cc1OC [TRANS-ASARONE]
(A) 4.03

(Q) # value lookup — system Cytochrome P450 3A4 (Homo sapiens, UniProt P08684), readout pIC50, item COc1cc(C[C@@H](CO)[C@H](CO)Cc2ccc3c(c2)OCO3)cc(OC)c1OC
(A) 6.10

(Q) # value lookup — system Cytochrome P450 3A4 (Homo sapiens, UniProt P08684), readout pIC50, item COc1cc(OC)c(OC)cc1CC(C)=O
(A) 4.54

(Q) # value lookup — system Cytochrome P450 3A4 (Homo sapiens, UniProt P08684), readout pIC50, item COc1cc(C[C@H]2C(O)OC[C@@H]2Cc2ccc3c(c2)OCO3)cc(OC)c1OC (stereo not given in full)
(A) 6.08

(Q) # value lookup — system Cytochrome P450 3A4 (Homo sapiens, UniProt P08684), readout pIC50, item CO[C@@H]1OC[C@H](Cc2ccc3c(c2)OCO3)[C@H]1Cc1ccc2c(c1)OCO2
(A) 5.11

* * *

Task for the reader: assign each of the following molecules its reported IC50.

(Q) # value lookup — system Cytochrome P450 2D6 (Homo sapiens), readout IC50, item CC1=C[C@@H](O)[C@@]23O[C@]2(C)C[C@@H]2OC(=O)C(C)=C2C[C@@H]13
(A) > 100 µM

(Q) # value lookup — system Cytochrome P450 2D6 (Homo sapiens), readout IC50, item C/C=C/c1cc(OC)c(OC)cc1OC [TRANS-ASARONE]
(A) > 100 µM

(Q) # value lookup — system Cytochrome P450 2D6 (Homo sapiens), readout IC50, item COc1cc(C[C@H]2COC(=O)[C@@H]2Cc2cc(OC)c3c(c2)OCO3)cc(OC)c1O
(A) > 100 µM

(Q) # value lookup — system Cytochrome P450 2D6 (Homo sapiens), readout IC50, item COc1cc(OC)c(OC)cc1CC(C)=O
(A) > 100 µM

(Q) # value lookup — system Cytochrome P450 2D6 (Homo sapiens), readout IC50, item CC1=CC(=O)C2=C(C)C[C@@H]3OC(=O)C(C)=C3C[C@@H]12
(A) > 100 µM
